Tested on: biotinyl-Met-oxazolone
Test: self-aminoacylation, catalytic enhancement (BMO) (fold over background); higher = more active; k-Seq, kA / k0A0; sequences stand for … in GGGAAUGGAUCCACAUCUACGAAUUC…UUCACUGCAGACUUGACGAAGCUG
Fewer inactive variants are shown than the library holds.
Kind request: treat 0.9 as inclusive, so self-aminoacylation at 0.9 or higher is satisfied, anything lower is not satisfied.

Input: Given CCACACUUCAAGUAAUCGGGC [Fam1B.1 aminoacylation ribozyme variant] , state whether its self-aminoacylation is at least 0.9.
Output: satisfied

Input: Given CUACUUCAAACAAUCGCUCGG [Fam1A.1 aminoacylation ribozyme variant] , state whether its self-aminoacylation is at least 0.9.
Output: not satisfied

Input: Given AAGUUUCCUAAUAUUCGCAAG [Fam3.1 aminoacylation ribozyme variant] , state whether its self-aminoacylation is at least 0.9.
Output: satisfied

Input: Given CUACUUCAAAAAAUCUGUCUG [Fam1A.1 aminoacylation ribozyme variant] , state whether its self-aminoacylation is at least 0.9.
Output: not satisfied

Input: Given AUCACCCUGGUCAUCGAAUGA [Fam2.1 aminoacylation ribozyme variant] , state whether its self-aminoacylation is at least 0.9.
Output: satisfied

Input: Given CUACAUAAAACAAUCGGUCUG [Fam1A.1 aminoacylation ribozyme variant] , state whether its self-aminoacylation is at least 0.9.
Output: satisfied

Input: Given CCACACUUCAUGCAAACGGUC [Fam1B.1 aminoacylation ribozyme variant] , state whether its self-aminoacylation is at least 0.9.
Output: not satisfied

Input: Given CCACACUUCCCGCAAUCGGUC [Fam1B.1 aminoacylation ribozyme variant] , state whether its self-aminoacylation is at least 0.9.
Output: satisfied

Input: Given AAGUUUGUUAAUAGGCGCAAG [Fam3.1 aminoacylation ribozyme variant] , state whether its self-aminoacylation is at least 0.9.
Output: not satisfied

Input: Given CCACAAUUCGAGCAAUCGGUC [Fam1B.1 aminoacylation ribozyme variant] , state whether its self-aminoacylation is at least 0.9.
Output: satisfied

Input: Given AAGUUUGCUAGUAGUCGCAAG [Fam3.1 aminoacylation ribozyme variant] , state whether its self-aminoacylation is at least 0.9.
Output: not satisfied

Input: Given AUUCACCUGGGUCAUCUGGUG [Fam2.2 aminoacylation ribozyme variant] , state whether its self-aminoacylation is at least 0.9.
Output: satisfied

Input: Given CCACACUAAAAGCAAUCGGUC [Fam1B.1 aminoacylation ribozyme variant] , state whether its self-aminoacylation is at least 0.9.
Output: not satisfied

Input: Given ACAGACUUCAAGCAAUCGGUC [Fam1B.1 aminoacylation ribozyme variant] , state whether its self-aminoacylation is at least 0.9.
Output: satisfied

Input: Given CCACACUUCAACCACUCGGUC [Fam1B.1 aminoacylation ribozyme variant] , state whether its self-aminoacylation is at least 0.9.
Output: satisfied

Input: Given AUUUAACUAGGUCAUCGGGUG [Fam2.2 aminoacylation ribozyme variant] , state whether its self-aminoacylation is at least 0.9.
Output: satisfied

Input: Given UUUACCCUGGUCAUCAAGUGA [Fam2.1 aminoacylation ribozyme variant] , state whether its self-aminoacylation is at least 0.9.
Output: satisfied

Input: Given AAUCAUCUAGGUCAUCGGGUG [Fam2.2 aminoacylation ribozyme variant] , state whether its self-aminoacylation is at least 0.9.
Output: satisfied

Input: Given AUUCGCCUAGGUCAUCGCGUG [Fam2.2 aminoacylation ribozyme variant] , state whether its self-aminoacylation is at least 0.9.
Output: satisfied

Input: Given GUUCACCUAGGUCAUGGGGUG [Fam2.2 aminoacylation ribozyme variant] , state whether its self-aminoacylation is at least 0.9.
Output: satisfied

###

Answer each item with its documented self-aminoacylation.
System: biotinyl-Met-oxazolone
Assay: self-aminoacylation, catalytic enhancement (BMO) (fold over background); higher = more active; k-Seq, kA / k0A0; sequences stand for … in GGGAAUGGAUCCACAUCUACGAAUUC…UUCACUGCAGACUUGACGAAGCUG
This sample holds only a part of the variants without activity.
Lab note: write the figure by itself, no unit.

Input: # input sequence: CUACACUUCAAGCAAUCGGUA [Fam1B.1 aminoacylation ribozyme variant] ; wanted: its self-aminoacylation
Output: 0.709

Input: # input sequence: AUUCAUUUAGGUCAUCGGGUG [Fam2.2 aminoacylation ribozyme variant] ; wanted: its self-aminoacylation
Output: 5.48

Input: # input sequence: AAGCUUGCUAAUAGUCGAAAG [Fam3.1 aminoacylation ribozyme variant] ; wanted: its self-aminoacylation
Output: 1.73

Input: # input sequence: AGGGUUGCUAAUAGUCGCAAG [Fam3.1 aminoacylation ribozyme variant] ; wanted: its self-aminoacylation
Output: 2.18

Input: # input sequence: CUACAUCAAACAAUCCGUCUG [Fam1A.1 aminoacylation ribozyme variant] ; wanted: its self-aminoacylation
Output: 0.759

Input: # input sequence: UUACUUCAAACAAUCGGCCUG [Fam1A.1 aminoacylation ribozyme variant] ; wanted: its self-aminoacylation
Output: 2.35

Input: # input sequence: AAGUUUGCUAAUCGUCGGAAG [Fam3.1 aminoacylation ribozyme variant] ; wanted: its self-aminoacylation
Output: 0.704

Input: # input sequence: CCUCACCUCAAGCAAUCGGUC [Fam1B.1 aminoacylation ribozyme variant] ; wanted: its self-aminoacylation
Output: 0.79

Input: # input sequence: CCACACUUCAAGCAAUAGUUC [Fam1B.1 aminoacylation ribozyme variant] ; wanted: its self-aminoacylation
Output: 0.501

###

Tested on: biotinyl-Ile-oxazolone
Experiment: self-aminoacylation, catalytic enhancement (BIO) (fold over background); higher = more active; k-Seq, kA / k0A0; sequences stand for … in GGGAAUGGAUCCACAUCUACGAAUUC…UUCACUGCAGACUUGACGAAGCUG
Fewer inactive variants are shown than the library holds.
measurement-kind: self-aminoacylation
Lab note: write the figure by itself, no unit.

Input: Please tell me: self-aminoacylation of CCACACUUCAGACAAUCGGUC [Fam1B.1 aminoacylation ribozyme variant] , system biotinyl-Ile-oxazolone?
Output: 1.17

Input: Please tell me: self-aminoacylation of AGUAACCUGGUCAUCGAGUGA [Fam2.1 aminoacylation ribozyme variant] , system biotinyl-Ile-oxazolone?
Output: 3.32

Input: Please tell me: self-aminoacylation of CCACUCCAAACAAUCGGUCUG [Fam1A.1 aminoacylation ribozyme variant] , system biotinyl-Ile-oxazolone?
Output: 1.11

Input: Please tell me: self-aminoacylation of CCACACUACAUGCAAUCGGUC [Fam1B.1 aminoacylation ribozyme variant] , system biotinyl-Ile-oxazolone?
Output: 0.737

Input: Please tell me: self-aminoacylation of CGACACUUCAAGCAUUCGGUC [Fam1B.1 aminoacylation ribozyme variant] , system biotinyl-Ile-oxazolone?
Output: 1.8

Input: Please tell me: self-aminoacylation of AAGUUUGCUAAUAGUCGCUAU [Fam3.1 aminoacylation ribozyme variant] , system biotinyl-Ile-oxazolone?
Output: 1.31

###

System: biotinyl-Trp-oxazolone
Assay: self-aminoacylation, catalytic enhancement (BWO) (fold over background); higher = more active; k-Seq, kA / k0A0; sequences stand for … in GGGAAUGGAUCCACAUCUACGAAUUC…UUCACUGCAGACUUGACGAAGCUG
Fewer inactive variants are shown than the library holds.
Answer each item with its documented self-aminoacylation.
Lab note: write the figure by itself, no unit.

Input: # input sequence: AUUACUCUGGUCUUCGAGUGA [Fam2.1 aminoacylation ribozyme variant] ; wanted: its self-aminoacylation
Output: 7.1

Input: # input sequence: CCACACUUGAAGCAAUCGGGC [Fam1B.1 aminoacylation ribozyme variant] ; wanted: its self-aminoacylation
Output: 2.26

Input: # input sequence: AUUCAACUAUGUCAUCGGGUG [Fam2.2 aminoacylation ribozyme variant] ; wanted: its self-aminoacylation
Output: 4.57

###

System: biotinyl-Leu-oxazolone
Experiment: self-aminoacylation, catalytic enhancement (BLO) (fold over background); higher = more active; k-Seq, kA / k0A0; sequences stand for … in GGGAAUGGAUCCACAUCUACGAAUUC…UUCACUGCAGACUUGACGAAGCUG
Variants at the floor of the assay were thinned out.
measurement-kind: self-aminoacylation
Lab note: write the figure by itself, no unit.

Input: # input sequence: UUUACCCUGGGCAUCGAGUGA [Fam2.1 aminoacylation ribozyme variant] ; wanted: its self-aminoacylation
Output: 4.84

Input: # input sequence: ACUCACCCAGGUCAUCGGGUG [Fam2.2 aminoacylation ribozyme variant] ; wanted: its self-aminoacylation
Output: 5.25

Input: # input sequence: AUUCACAUAGGUCAUCGAGUG [Fam2.2 aminoacylation ribozyme variant] ; wanted: its self-aminoacylation
Output: 2.69

Input: # input sequence: CUAUAUCAAACAAUCGGUCUG [Fam1A.1 aminoacylation ribozyme variant] ; wanted: its self-aminoacylation
Output: 0.638

###

Tested on: biotinyl-Trp-oxazolone
Assay: self-aminoacylation, catalytic enhancement (BWO) (fold over background); higher = more active; k-Seq, kA / k0A0; sequences stand for … in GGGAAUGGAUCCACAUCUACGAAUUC…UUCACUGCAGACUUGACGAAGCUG
Fewer inactive variants are shown than the library holds.
Kind request: treat 2 as inclusive, so self-aminoacylation at 2 or higher is True, anything lower is False.

Input: Given AUUCGCCUAGGGCAUCGGGUG [Fam2.2 aminoacylation ribozyme variant] , state whether its self-aminoacylation is at least 2.
Output: True

Input: Given AUUCACCUAGGUCACCGAGUG [Fam2.2 aminoacylation ribozyme variant] , state whether its self-aminoacylation is at least 2.
Output: True

Input: Given AAGUUUACUAAUAUUCGCAAG [Fam3.1 aminoacylation ribozyme variant] , state whether its self-aminoacylation is at least 2.
Output: True

Input: Given GCACACUUCAAGCAUUCGGUC [Fam1B.1 aminoacylation ribozyme variant] , state whether its self-aminoacylation is at least 2.
Output: True

Input: Given AAGCUGGCUAAUAGUCGCAAG [Fam3.1 aminoacylation ribozyme variant] , state whether its self-aminoacylation is at least 2.
Output: True

Input: Given AUUACCCUGGCCGUCGAGUGA [Fam2.1 aminoacylation ribozyme variant] , state whether its self-aminoacylation is at least 2.
Output: True

Input: Given CUAAUUCAAACAAUCGCUCUG [Fam1A.1 aminoacylation ribozyme variant] , state whether its self-aminoacylation is at least 2.
Output: False

Input: Given CCACACUUGAAGCAAUCGUUC [Fam1B.1 aminoacylation ribozyme variant] , state whether its self-aminoacylation is at least 2.
Output: False

Every entry's value here was drawn from the supplement of paper PMC9233669.
